- test.description: Plasma concentration in Sprague-Dawley rat at 1 mg/kg, iv administered after 10 minutes
- Assay type: ADME, organism-based
- Set-up: dose 1 mg/kg, route intravenous
Bridge positions count the residues as written; N and C are the ends. Square brackets hold non-standard residues; d marks the D form. Peptide text beside a SMILES is read from it. Dab = NCC[C@H](N)C(=O)O
endpoint.name: concentration at 10 min (ng/mL)
// units = ng/mL; emit number, no label

(Q) Identify the reported concentration at 10 min for the following entry. CC(=O)N[C@H](C(=O)N[C@H](CO)C(=O)N[C@H]1CCNC(=O)[C@H]([C@@H](C)O)NC(=O)[C@H](CCN)NC(=O)[C@H](CCN)NC(=O)[C@H](CC(C)C)NC(=O)[C@@H](Cc2ccccc2)NC(=O)[C@H](CCN)NC1=O)[C@@H](C)O [SPR-741] (Ac-T[dS][Dab][Dab][dF]L[Dab][Dab]T; lactam 3-C)
(A) 3130

###

- Tested on: Escherichia coli
- test.description: Ratio of MIC for Escherichia coli ATCC 25922 to MIC for Escherichia coli ATCC 25922 in presence of 4 ug/ml of NAB741
- Type: functional
endpoint.name: Ratio
Give only the figure.

(Q) Give the measured Ratio for `CC[C@H]1OC(=O)[C@H](C)[C@@H](O[C@H]2C[C@@](C)(OC)[C@@H](O)[C@H](C)O2)[C@H](C)[C@@H](O[C@@H]2O[C@H](C)C[C@H](N(C)C)[C@H]2O)[C@](C)(O)C[C@@H](C)CN(C)[C@H](C)[C@@H](O)[C@]1(C)O`
(A) 16

(Q) Supply measured Ratio of `C/C(=C\C(=O)OCCCCCCCCC(=O)O)C[C@@H]1OC[C@H](C[C@@H]2O[C@H]2[C@@H](C)[C@H](C)O)[C@@H](O)[C@H]1O` in your reply.
(A) 64

Proceeding to the next molecule to report its Ratio.
(Q) Fill in reported Ratio for this entry: `CC[C@H]1OC(=O)[C@H](C)[C@@H](O[C@H]2C[C@@](C)(OC)[C@@H](O)[C@H](C)O2)[C@H](C)[C@@H](O[C@@H]2O[C@H](C)C[C@H](N(C)C)[C@H]2O)[C@](C)(OC)C[C@@H](C)C(=O)[C@H](C)[C@@H](O)[C@]1(C)O`
(A) 84
